assayed.system: T1, cynomolgus monkey IL-33 expressed with a C-terminal hexahistidine tag (cynomolgus monkey)
T1 construct: also called MfIL-33-6His; Mf-IL-33-6His
T1 chain: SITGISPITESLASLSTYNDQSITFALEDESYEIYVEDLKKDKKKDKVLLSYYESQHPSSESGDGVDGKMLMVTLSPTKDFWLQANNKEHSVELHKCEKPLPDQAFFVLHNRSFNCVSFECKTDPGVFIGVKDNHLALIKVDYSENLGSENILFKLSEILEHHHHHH
experiment.description: SPR 25C pH7.4, mAb captured
Experimental: Equilibrium dissociation constants (KD values) for IL-33 binding to purified anti-IL-33 monoclonal antibodies were determined using a real-time surface plasmon resonance biosensor using a Biacore 4000 instrument. […] Association of either hIL-33 or MfIL-33-6His to the captured monoclonal antibody was monitored for 4 minutes and their dissociation in ABS-ET running buffer was monitored for 10 minutes. […]
Entries and their kon values follow.
Number only, in M⁻¹ s⁻¹; omit the unit.

As a guide, the following entries are already answered.
# binder, kon (M⁻¹ s⁻¹)
records = [
    ("H4H9640P (antibody, human IgG4, V domains shown, Human IgG4 Fc (H4H)) VH: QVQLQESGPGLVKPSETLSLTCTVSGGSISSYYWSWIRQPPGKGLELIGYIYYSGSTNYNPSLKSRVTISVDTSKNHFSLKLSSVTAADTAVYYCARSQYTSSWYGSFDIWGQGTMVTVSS VL: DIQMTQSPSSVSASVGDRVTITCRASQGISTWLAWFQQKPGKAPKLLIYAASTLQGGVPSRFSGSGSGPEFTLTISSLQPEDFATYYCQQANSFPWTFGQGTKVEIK", 450000),
    ("H4H9659P (antibody, human IgG4, V domains shown, Human IgG4 Fc (H4H)) VH: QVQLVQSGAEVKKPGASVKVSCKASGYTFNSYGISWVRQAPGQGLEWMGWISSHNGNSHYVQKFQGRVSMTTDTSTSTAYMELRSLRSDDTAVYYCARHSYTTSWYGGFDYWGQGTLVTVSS VL: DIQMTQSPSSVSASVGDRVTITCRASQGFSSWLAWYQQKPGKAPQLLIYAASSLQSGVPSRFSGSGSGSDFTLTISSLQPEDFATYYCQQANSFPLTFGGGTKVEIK", 325000),
]

Now for a further binder.
Q: Field request: kon | item: H4H9671P (antibody, human IgG4, V domains shown, Human IgG4 Fc (H4H)) VH: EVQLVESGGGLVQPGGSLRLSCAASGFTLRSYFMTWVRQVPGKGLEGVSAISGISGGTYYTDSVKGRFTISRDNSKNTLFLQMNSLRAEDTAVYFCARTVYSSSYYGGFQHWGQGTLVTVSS VL: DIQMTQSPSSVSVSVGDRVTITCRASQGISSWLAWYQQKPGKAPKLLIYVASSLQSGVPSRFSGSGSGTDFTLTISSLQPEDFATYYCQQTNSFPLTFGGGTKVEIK
Result: 587000

// provenance: patent US20160362487A1
